- TEST TARGET: T1, YFR024C SH3 domain (Saccharomyces cerevisiae)
- T1 chain: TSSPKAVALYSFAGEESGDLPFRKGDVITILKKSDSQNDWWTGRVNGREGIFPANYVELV
- PROTOCOL TEXT: SPR
- CONDITION CONTEXT: modification not given
Below, each entry is listed alongside its reported Kd.
The reply should contain only the number, in µM.

> print(dat)
                              binder  endpoint.label  measured.result
1  NQPDLPPRKIMIP [YBR239C peptide …]              Kd               22

Query binder follows.
**Q:** Give the measured Kd of RPLPQLPNRNNRPV [LAS17 peptide …] .
**A:** 8.9
